# experimental protocol: recombinant UMI read abundance after kanamycin selection (control-corrected) (log10(CPM+1)); higher = more efficient recombination; extreme values may be limits of the assay; sequences stand for … in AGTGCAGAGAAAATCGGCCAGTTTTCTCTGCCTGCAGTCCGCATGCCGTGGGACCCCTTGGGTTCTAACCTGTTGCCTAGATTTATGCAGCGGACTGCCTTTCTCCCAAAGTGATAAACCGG…AGGTTGGTTTCACT; site = the 11-nt donor;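 note: IS621 bridge recombinase in Escherichia coli cells against a fixed T5 target plasmid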

{"biopolymer sequence": "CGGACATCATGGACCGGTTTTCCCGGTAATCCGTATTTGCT (site CGGACATCTAG)", "recombinant UMI read abundance (log10)": 2.42}
{"biopolymer sequence": "ACATTATCATGGACCGGTTTTCCCGGTAATCCGTATTTGAA (site ACATTATCTTT)", "recombinant UMI read abundance (log10)": 2.38}
{"biopolymer sequence": "ATGTAGACATGGACCGGTTTTCCCGGTAATCCGTATTTGGC (site ATGTAGACTGC)", "recombinant UMI read abundance (log10)": 2.91}
